Assay: Parallel artificial membrane permeability assay (PAMPA)
Format: in vitro ADME, porcine
Settings: baicalin constructs; 200 μM initial, pH 7.4, 4 hours, room temperature
Field: Log Pe. Provide a value for each of the compounds that follow.
Answers are plain numbers.

Please review the entries below; each comes with its answer.
compound="CCCCCCC1C(=O)NC(Cc2ccc(NC(=O)C3OC(Oc4cc5oc(-c6ccccc6)cc(=O)c5c(O)c4O)C(O)C(O)C3O)cc2)C(=O)N1C (stereo not drawn)" test_readout="Log Pe" assay_result=−6.3
compound="CN1C(=O)C(Cc2ccc(NC(=O)C3OC(Oc4cc5oc(-c6ccccc6)cc(=O)c5c(O)c4O)C(O)C(O)C3O)cc2)NC(=O)C1Cc1ccccc1 (stereo not drawn)" test_readout="Log Pe" assay_result=−7.7

What value of Log Pe has been reported for the following compound? CN1C(=O)C(Cc2ccc(NC(=O)C3OC(Oc4cc5oc(-c6ccccc6)cc(=O)c5c(O)c4O)C(O)C(O)C3O)cc2)NC(=O)C1Cc1ccc2ccccc2c1 (stereo not drawn)
−5.4
